Values were extracted from PubChem BioAssay.

inhibition values by entry
assaySummary: endothelial E-selectin expression blockers – imaging, HUVEC, immunofluorescence, MLSMR starter and 10KST1 sets, primary screen (AID 487);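 on inhibition: signal is fraction of cell area covered by stained E-selectin grains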
assayContext: HUVEC TNFalpha-induced E-selectin immunofluorescence imaging, at 2 µM; stronger effect = higher value
observable: inhibition (%)

molecule	testValue
CCCS(=O)(=O)C(=C1Nc2ccccc2N1)S(=O)(=O)CCC	0.5
COc1ncnc2c1N=C1CC(C)(C)CC(N)=C1S2	-16.2
O=C(CSc1ncn[nH]1)NC1CC2CCC1C2 (stereo unspecified)	56.4
O=C(NCc1ccco1)c1cccc(-c2nnc(-c3ccccc3)o2)c1	-78.1
CC(C(=O)Nc1ccccc1-c1ccccc1)N1CCN(C(=O)c2ccco2)CC1 (stereo unspecified)	-63.4
N#CCC(=O)Nc1ncn(Cc2ccccc2Cl)n1	-51.5

* * *

cell count values by entry
assaySummary: inhibitors of TNFa-induced NFkB p65 translocation, primary screen, imaging, HUVEC, MLSMR starter and 10KST1 sets (AID 438);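 further: compound added about 3h40 before a 20 min TNFalpha stimulation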
assayContext: HUVEC TNFa-induced p65 nuclear translocation; measured here: nuclei count (cytotoxicity indicator), at 2.08 µM
observable: cell count

compound	testValue
CC1(C)NC(=O)N(CNc2cc(Cl)ccc2Cl)C1=O	649
CNC(=O)CSc1nc2c(c(=O)n(C)c(=O)n2C)n1Cc1ccc(C)cc1	346
CCC(=O)N1CCN(c2nc(-c3ccccc3)c3c(c2C#N)CCCC3)CC1	501
COC(=O)Cc1[nH]nc2c1C(C1C=CCCC1)C(C#N)=C(N)O2 (stereo unspecified)	592
CN1CCN(C(=O)CCC(=O)c2ccc(F)cc2)CC1	478
COCCNC(=O)NC(=O)COC(=O)Cc1ccc2c(c1)OCCO2	376
COc1cc(S(=O)(=O)NC2CCCCC2C)ccc1Cl (stereo unspecified)	691
CCOC(=O)c1cc2ccc(OC)c(OC)c2c(=O)s1	452
Cc1ccc2nc3c(cc(C(=O)NCC4CCCO4)n3C)c(=O)n2c1 (stereo unspecified)	405
O=C(O)Cn1cc(C(=O)c2ccco2)c2ccccc21	316
c1ccc(-c2cc(-c3nc(-c4ccccn4)no3)c3ccccc3n2)cc1	469

* * *

assaySummary: endothelial E-selectin expression blockers – imaging, HUVEC, immunofluorescence, MLSMR starter and 10KST1 sets, primary screen (AID 487);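 on nuclei count: 100% = median nuclei count of all wells on the same plate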
assayContext: HUVEC TNFalpha-induced E-selectin immunofluorescence imaging, at 2 µM; measured here: cell number, toxicity

compound	nuclei count / %
CN(Cc1cccs1)CC(O)COCc1ccco1 (centres undefined)	113
O=C1CC(N2CCOCC2)C(=O)N1c1ccc2c(c1)OCO2 (centres undefined)	120
O=C(Nc1nnc(SCC(=O)N2CCCCC2)s1)C1CCCCC1	118
COc1ccc(-n2nnnc2-c2cccc(OC)c2)cc1	105
CC(C)(C)n1nnnc1CN(Cc1ccco1)Cc1cc2cc3c(cc2[nH]c1=O)OCO3	130
Cc1cccc(OCC(=O)Nc2cc(C)ccc2O)c1	87.8
CCOC(=O)c1[nH]c2ccc(C)cc2c1NC(=O)CN1CCCCC1	87.9
Cc1ccc(S(=O)(=O)C(C#N)c2nc3ccccc3nc2OC(C)C)cc1 (centres undefined)	114
Nc1ccc(-n2c(N)c(C(=O)NCc3ccc4c(c3)OCO4)c3nc4ccccc4nc32)cc1	117
Cc1cccc2cc(CN(Cc3nnnn3Cc3ccco3)C3CCCC3)c3nnnn3c12	116
Cn1c(=O)[nH]c(=O)c2c1nc(N1CCOCC1)n2CC(O)COc1ccc2ccccc2c1 (centres undefined)	120
Cc1ccc(CN2C(=O)CCC2C(=O)NCC2CCCO2)cc1 (centres undefined)	97.8
CCCCc1ccc(NC(=O)C2CCCO2)cc1 (centres undefined)	98.5
CC1Cc2ccccc2N1C(=O)c1cccnc1 (centres undefined)	103
CON(C)c1nc(Oc2ccc(=O)[nH]n2)nc(N(C)C)n1	101
Cc1nonc1NC(=O)c1ccccc1Br	60
CC(=O)NCCn1c(SCC(=O)NCC2CCCO2)nc2ccccc2c1=O (centres undefined)	103
COc1cccc(-c2csc3nc[nH]c(=O)c23)c1	97.9
CCC(=O)Nc1ccc(NC(=O)c2ccccn2)cn1	104
O=C(CCC(=O)N(c1cccc(F)c1)C(C(=O)NC1CCCC1)c1ccncc1)Nc1cccnc1 (centres undefined)	108
COc1ccc(-c2nc(CS(=O)CC(=O)N3CCCC3)c(C)o2)cc1 (centres undefined)	100
CC(C)COc1ccc(C(=O)OCCN2CCOCC2)cc1	116
COc1cccc(C(=O)n2cnnc2N)c1OC	102
CC1Oc2ccccc2N(Cc2ccccc2Cl)C1=O (centres undefined)	106
